Molecular target: Protein-tyrosine kinase 2-beta (Homo sapiens) (UniProt Q14289)
Sequence (Q14289 whole entry, looked up, the tested form may be a part): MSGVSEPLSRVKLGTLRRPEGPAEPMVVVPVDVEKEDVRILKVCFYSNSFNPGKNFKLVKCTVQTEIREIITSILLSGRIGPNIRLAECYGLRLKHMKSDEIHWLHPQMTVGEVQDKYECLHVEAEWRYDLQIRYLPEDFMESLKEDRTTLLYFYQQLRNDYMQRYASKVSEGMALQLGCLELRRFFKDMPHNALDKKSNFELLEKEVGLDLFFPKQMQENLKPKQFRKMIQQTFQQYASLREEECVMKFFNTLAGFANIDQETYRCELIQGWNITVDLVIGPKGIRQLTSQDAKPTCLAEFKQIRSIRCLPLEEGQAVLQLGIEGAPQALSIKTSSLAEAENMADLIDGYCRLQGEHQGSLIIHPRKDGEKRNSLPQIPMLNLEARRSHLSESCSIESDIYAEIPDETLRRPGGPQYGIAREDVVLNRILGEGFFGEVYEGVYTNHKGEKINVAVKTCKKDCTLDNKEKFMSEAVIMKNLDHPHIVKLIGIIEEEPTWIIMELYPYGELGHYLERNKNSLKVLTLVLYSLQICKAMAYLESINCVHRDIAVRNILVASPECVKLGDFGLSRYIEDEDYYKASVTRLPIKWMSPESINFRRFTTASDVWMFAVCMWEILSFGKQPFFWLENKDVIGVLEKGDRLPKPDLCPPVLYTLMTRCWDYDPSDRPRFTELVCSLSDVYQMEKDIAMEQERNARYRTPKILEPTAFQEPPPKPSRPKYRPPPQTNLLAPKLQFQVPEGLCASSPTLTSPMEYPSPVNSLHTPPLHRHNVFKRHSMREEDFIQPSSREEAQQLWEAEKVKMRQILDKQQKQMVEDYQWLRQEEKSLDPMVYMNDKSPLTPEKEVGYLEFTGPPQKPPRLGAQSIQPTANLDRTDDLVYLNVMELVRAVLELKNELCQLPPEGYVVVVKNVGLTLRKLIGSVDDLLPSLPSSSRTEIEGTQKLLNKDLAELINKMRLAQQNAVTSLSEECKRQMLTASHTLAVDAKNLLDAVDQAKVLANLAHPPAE
Experiment: Inhibition of human full-length N-terminal GST-fused PYK2 (1 to 967 (end)residues) expressed in baculovirus expression system at 20 uM measured after 1 hr in presence of peptide substrate and ATP by off-chip mobility shift assay relative to control
Provide the reported inhibition of each item.
Your answer is read as %, so omit the unit and give the number.

Report inhibition for "Cc1ccc(NC(=O)CN2C(=O)/C(=N\NC(=O)c3cc(Br)ccc3O)c3ccc(Cl)cc32)cc1" please.
49.7

Tell me the measured inhibition of "Cc1ccc(NC(=O)CN2C(=O)/C(=N\NC(=O)c3cc(Br)ccc3O)c3ccc(Br)cc32)cc1" , please.
48.5

Look up inhibition for this compound: "Cc1ccc(NC(=O)CN2C(=O)/C(=N\NC(=O)c3cc(Br)ccc3O)c3ccccc32)cc1"
49.9

Tell me the measured inhibition of "O=C(CN1C(=O)/C(=N\NC(=O)c2cc(Br)ccc2O)c2c(Br)cccc21)Nc1ccc([N+](=O)[O-])cc1" , please.
45.1

----------
QUANTITY: Ki (nM)
Answer with a number only, understood to be in nM.

GET /values?readout=Ki&system=Protein smoothened (Homo sapiens, UniProt Q99835)&item= "O=C(CN1C(=O)/C(=N\NC(=O)c2cc(Br)ccc2O)c2c(Br)cccc21)Nc1ccc([N+](=O)[O-])cc1"
9

----------
Target: UniProt:P29317
Sequence (P29317 whole entry): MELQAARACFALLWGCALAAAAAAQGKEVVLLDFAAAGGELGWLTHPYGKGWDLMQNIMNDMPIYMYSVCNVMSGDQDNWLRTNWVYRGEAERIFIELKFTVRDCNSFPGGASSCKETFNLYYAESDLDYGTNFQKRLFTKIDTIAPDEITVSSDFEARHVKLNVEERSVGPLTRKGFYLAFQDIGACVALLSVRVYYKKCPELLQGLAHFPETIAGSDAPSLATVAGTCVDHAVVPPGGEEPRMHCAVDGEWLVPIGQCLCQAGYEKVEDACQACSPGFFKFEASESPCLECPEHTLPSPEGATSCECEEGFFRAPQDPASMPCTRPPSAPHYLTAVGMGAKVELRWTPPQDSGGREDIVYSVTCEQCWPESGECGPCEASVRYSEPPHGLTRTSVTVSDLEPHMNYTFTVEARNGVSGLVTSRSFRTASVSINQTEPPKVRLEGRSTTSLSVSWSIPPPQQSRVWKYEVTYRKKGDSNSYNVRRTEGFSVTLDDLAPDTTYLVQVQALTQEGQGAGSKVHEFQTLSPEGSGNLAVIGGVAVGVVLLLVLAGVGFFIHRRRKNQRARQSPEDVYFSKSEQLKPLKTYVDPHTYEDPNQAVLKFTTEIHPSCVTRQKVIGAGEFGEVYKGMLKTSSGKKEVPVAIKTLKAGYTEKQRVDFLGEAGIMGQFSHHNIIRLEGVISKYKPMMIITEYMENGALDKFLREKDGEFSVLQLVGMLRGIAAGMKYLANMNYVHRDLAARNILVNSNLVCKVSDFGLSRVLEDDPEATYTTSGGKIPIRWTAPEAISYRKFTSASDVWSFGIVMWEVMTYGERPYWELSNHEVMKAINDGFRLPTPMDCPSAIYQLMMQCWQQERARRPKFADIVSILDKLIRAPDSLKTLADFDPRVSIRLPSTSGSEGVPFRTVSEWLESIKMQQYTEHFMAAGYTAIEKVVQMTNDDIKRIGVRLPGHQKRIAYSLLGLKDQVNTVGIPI
Assay: Inhibition of EPHA2 (unknown origin) at 20 uM measured after 1 hr in presence of peptide substrate and ATP by off-chip mobility shift assay relative to control
QUANTITY: inhibition (%)
Answer in %, number only, no unit symbol.

Any idea what its inhibition is? The molecule is "Cc1ccc(NC(=O)CN2C(=O)/C(=N\NC(=O)c3cc(Br)ccc3O)c3ccc(Cl)cc32)cc1"
62.5

Report inhibition for "Cc1ccc(NC(=O)CN2C(=O)/C(=N\NC(=O)c3cc(Br)ccc3O)c3ccccc32)cc1" please.
95

Any idea what inhibition was measured for "Cc1ccc(NC(=O)CN2C(=O)/C(=N\NC(=O)c3cc(Br)ccc3O)c3ccc(Br)cc32)cc1" ?
69.2

If you can, please state the reported inhibition value of "O=C(CN1C(=O)/C(=N\NC(=O)c2cc(Br)ccc2O)c2c(Br)cccc21)Nc1ccc([N+](=O)[O-])cc1" .
71.5

----------
Could you please report measured inhibition for the items listed next?
Target: Tyrosine-protein kinase JAK3 (Homo sapiens) (UniProt P52333)
Sequence (whole entry): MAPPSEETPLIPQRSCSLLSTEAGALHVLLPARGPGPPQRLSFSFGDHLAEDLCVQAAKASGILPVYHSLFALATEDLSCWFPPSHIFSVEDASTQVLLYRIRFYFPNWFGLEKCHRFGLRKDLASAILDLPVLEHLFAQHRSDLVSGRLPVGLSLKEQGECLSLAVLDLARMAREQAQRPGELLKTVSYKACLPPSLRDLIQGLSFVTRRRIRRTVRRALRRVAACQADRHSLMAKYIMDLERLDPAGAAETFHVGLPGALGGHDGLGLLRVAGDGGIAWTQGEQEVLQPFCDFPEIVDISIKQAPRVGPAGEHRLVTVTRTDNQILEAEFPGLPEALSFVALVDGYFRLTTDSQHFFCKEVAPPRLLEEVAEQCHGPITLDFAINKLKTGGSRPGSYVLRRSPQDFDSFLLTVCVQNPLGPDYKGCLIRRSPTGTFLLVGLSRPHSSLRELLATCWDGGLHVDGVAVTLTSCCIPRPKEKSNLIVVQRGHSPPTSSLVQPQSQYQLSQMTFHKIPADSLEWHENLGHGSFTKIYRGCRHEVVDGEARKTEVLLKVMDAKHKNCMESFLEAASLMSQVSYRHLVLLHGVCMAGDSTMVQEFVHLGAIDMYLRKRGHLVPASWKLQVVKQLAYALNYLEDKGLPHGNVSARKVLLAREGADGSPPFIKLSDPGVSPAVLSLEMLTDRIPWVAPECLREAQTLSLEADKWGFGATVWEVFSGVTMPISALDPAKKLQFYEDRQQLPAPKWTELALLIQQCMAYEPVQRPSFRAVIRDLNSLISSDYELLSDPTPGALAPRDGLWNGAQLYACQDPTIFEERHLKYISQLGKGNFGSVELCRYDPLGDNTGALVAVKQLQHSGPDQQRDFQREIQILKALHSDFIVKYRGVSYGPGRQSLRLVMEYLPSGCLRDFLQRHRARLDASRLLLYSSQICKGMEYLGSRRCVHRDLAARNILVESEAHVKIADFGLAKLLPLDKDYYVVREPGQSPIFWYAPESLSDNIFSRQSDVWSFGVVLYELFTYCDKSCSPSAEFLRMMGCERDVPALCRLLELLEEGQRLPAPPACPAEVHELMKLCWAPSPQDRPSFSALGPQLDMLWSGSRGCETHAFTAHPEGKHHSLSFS
Test: Inhibition of human N-terminal His-tagged JAK3 catalytic domain (795 to 1124 (end)residues) expressed in baculovirus expression system at 20 uM measured after 1 hr in presence of peptide substrate and ATP by off-chip mobility shift assay relative to control

If you can, please state the reported inhibition value of "Cc1ccc(NC(=O)CN2C(=O)/C(=N\NC(=O)c3cc(Br)ccc3O)c3ccccc32)cc1" .
83.8%

Reported inhibition for "Cc1ccc(NC(=O)CN2C(=O)/C(=N\NC(=O)c3cc(Br)ccc3O)c3ccc(Cl)cc32)cc1" : what is it?
76.6%

Param item = "O=C(CN1C(=O)/C(=N\NC(=O)c2cc(Br)ccc2O)c2c(Br)cccc21)Nc1ccc([N+](=O)[O-])cc1" ; retrieve measured inhibition.
78.9%

What does the data say about its inhibition? Entry: "Cc1ccc(NC(=O)CN2C(=O)/C(=N\NC(=O)c3cc(Br)ccc3O)c3ccc(Br)cc32)cc1"
72.4%
